The reported measurements were obtained from patent US11850213B2.

- ASSAY_REMARKS: Retina exposure of rifampicin after subcutaneous injection, LC/MS
- Format: in vivo, Sprague-Dawley rats
- TEST_CONDITIONS: male, Sprague-Dawley, rat, SC injection 20 mg/Kg (Example 6A), 1 hr, n = 4
PROPERTY_NAME: concentration at 1 hr (ng/g)
Your answer should be a plain number; it is taken to be in ng/g.

Asked: Answer with the recorded concentration at 1 hr for the compound listed here: CO[C@H]1/C=C/O[C@@]2(C)Oc3c(C)c(O)c4c(O)c(c(/C=N/N5CCN(C)CC5)c(O)c4c3C2=O)NC(=O)/C(C)=C\C=C\[C@H](C)[C@H](O)[C@@H](C)[C@@H](O)[C@@H](C)[C@H](OC(C)=O)[C@@H]1C
Given back: 2660

---

- ASSAY_REMARKS: PK study, retina exposure after 0.25% rifampicin eye drop, LC/MS
- Type: in vivo, Sprague-Dawley rats
- TEST_CONDITIONS: male, Sprague-Dawley, topical or ocular, 37.5 micro gram, rat, 0.25% eye drop 15 microL
PROPERTY_NAME: Tmax

Asked: Quick one: give measured Tmax for CO[C@H]1/C=C/O[C@@]2(C)Oc3c(C)c(O)c4c(O)c(c(/C=N/N5CCN(C)CC5)c(O)c4c3C2=O)NC(=O)/C(C)=C\C=C\[C@H](C)[C@H](O)[C@@H](C)[C@@H](O)[C@@H](C)[C@H](OC(C)=O)[C@@H]1C
Given back: ~1 h

---

- ASSAY_REMARKS: Solubility of AMD101 in H2O
- Type: physicochemical
- TEST_CONDITIONS: water
PROPERTY_NAME: solubility

Asked: Quick one: give measured solubility for CO[C@H]1/C=C/O[C@@]2(C)Oc3c(C)c(O)c4c(O)c(c(/C=N/N5CCN(C)CC5)c(O)c4c3C2=O)NC(=O)/C(C)=C\C=C\[C@H](C)[C@H](O)[C@@H](C)[C@@H](O)[C@@H](C)[C@H](OC(C)=O)[C@@H]1C
Given back: ~1.4 mg/mL

---

- ASSAY_REMARKS: Retina exposure of rifampicin after subcutaneous injection, LC/MS
- Format: in vivo, Sprague-Dawley rats
- TEST_CONDITIONS: male, Sprague-Dawley, rat, SC injection 20 mg/Kg (Example 6A), 7 hr, n = 4
PROPERTY_NAME: concentration at 7 hr (ng/g)
Write the answer as a number in ng/g, unit excluded.

Asked: Give concentration at 7 hr for CO[C@H]1/C=C/O[C@@]2(C)Oc3c(C)c(O)c4c(O)c(c(/C=N/N5CCN(C)CC5)c(O)c4c3C2=O)NC(=O)/C(C)=C\C=C\[C@H](C)[C@H](O)[C@@H](C)[C@@H](O)[C@@H](C)[C@H](OC(C)=O)[C@@H]1C
Given back: 2520

---

- ASSAY_REMARKS: Dose-response study, retina exposure after 0.25% and 0.5% rifampicin eye drops, LC/MS
- Assay type: in vivo, Sprague-Dawley rats
- TEST_CONDITIONS: male, Sprague-Dawley, rat, topical, 75 micro gram
- Excerpt: 15 microL of eye drop formulations which are presented as Example 1A and 6A listed in Table 1 and Table 2, respectively, were used to dose the compound to a single eye of a rat. […] In 1 hr after the eye drop application, retina tissues were extracted from the rats under a dissection microscope. […] After the washing procedure, retina tissue in a microcentrifuge tube was frozen in dry ice, and it was stored for quantification by LC/MS analysis.
PROPERTY_NAME: concentration at 1 hr (ng/g)
Write the value in ng/g as a bare number.

Asked: Tell me measured concentration at 1 hr for CO[C@H]1/C=C/O[C@@]2(C)Oc3c(C)c(O)c4c(O)c(c(/C=N/N5CCN(C)CC5)c(O)c4c3C2=O)NC(=O)/C(C)=C\C=C\[C@H](C)[C@H](O)[C@@H](C)[C@@H](O)[C@@H](C)[C@H](OC(C)=O)[C@@H]1C [Rifampicin] please.
Given back: 6070
